Test: NCI Yeast Anticancer Drug Screen. Data for the mlh1 strain (AID 171);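 note: 0% = growth of vehicle-treated control cultures of the same strain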
Details: S. cerevisiae mlh1 strain growth inhibition; at 3.7 µM; stronger effect = higher value
The panel holds about 79,000 compounds, 15% with a hit somewhere; the sample as a whole holds those more often. Active and inactive are the calls of the source. Cut-off read from the data, not from the text of the source: active = growth inhibition above about 70%; inactive = the rest.
Reported growth inhibition values are given for each entry in this list.

[
  {
    "compound": "Cc1ccc(Nc2n[nH]c(=S)s2)cc1C",
    "growth inhibition": "-21% (inactive)"
  },
  {
    "compound": "CC(C)c1ccc(C2NC(=S)NC3=C2c2ccccc2C3=O)cc1 (centres undefined)",
    "growth inhibition": "-1% (inactive)"
  },
  {
    "compound": "Cc1nc2ccccc2c(=O)n1NC(=O)c1ccc(CS)cc1",
    "growth inhibition": "12% (inactive)"
  }
]

Attention now shifts to the item below.
Ask: Which growth inhibition is listed for CCCC(=O)OC(OC(=O)CCC)c1ccc([N+](=O)[O-])o1 ?
Reply: -2% (inactive)

* * *

Test: NCI Yeast Anticancer Drug Screen. Data for the rad50 strain (AID 155);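 note: 0% = growth of vehicle-only cultures of the same strain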
Conditions: S. cerevisiae rad50 strain growth inhibition; at 11.0 µM; stronger effect = higher value
This is part of a sample that, as a whole, favours compounds with a hit. Of some 79,000 tested, about 15% had one in any assay.
result_type: growth inhibition (%)
Give just the numeric value; % need not be written.

Recorded results for 10 compounds are shown here.
[
  {
    "compound": "Cc1ccc(C(C)C)c(C(=C2C=CC(=[N+](C)C)C=C2)c2c(C(C)C)ccc(C)c2O)c1O",
    "result_type": "growth inhibition",
    "reported_measurement": 97
  },
  {
    "compound": "O=C1c2ccccc2-c2ccc(NC(=O)C3CCCCC3C(=O)O)cc21 (centres undefined)",
    "result_type": "growth inhibition",
    "reported_measurement": 10
  },
  {
    "compound": "CCOc1ccc2ccc3cccnc3c2n1",
    "result_type": "growth inhibition",
    "reported_measurement": 26
  },
  {
    "compound": "O=c1oc(C(C(F)(F)F)C(F)(F)F)nc2ccccc12",
    "result_type": "growth inhibition",
    "reported_measurement": 25
  },
  {
    "compound": "Nc1ccc2ncc(Nc3ccc(Cl)c(Cl)c3)nc2c1",
    "result_type": "growth inhibition",
    "reported_measurement": 70
  },
  {
    "compound": "O=C(Cc1ccccc1F)NC1=C(Cl)C(=O)c2ccccc2C1=O",
    "result_type": "growth inhibition",
    "reported_measurement": 13
  },
  {
    "compound": "c1ccc(C2=NNC3c4ccccc4-c4ccccc4N3C2)cc1 (centres undefined)",
    "result_type": "growth inhibition",
    "reported_measurement": 11
  },
  {
    "compound": "CC[C@@]1(OC(=O)CN(C)C)C(=O)OCc2c1cc1n(c2=O)Cc2cc3ccccc3nc2-1",
    "result_type": "growth inhibition",
    "reported_measurement": 96
  },
  {
    "compound": "[N-]=[N+]=NC1CC(n2ccc(=O)[nH]c2=O)OC1COC(c1ccccc1)(c1ccccc1)c1ccccc1 (centres undefined)",
    "result_type": "growth inhibition",
    "reported_measurement": 48
  },
  {
    "compound": "O=C1OC(c2ccc(Cl)cc2)Sc2ccccc21 (centres undefined)",
    "result_type": "growth inhibition",
    "reported_measurement": 62
  }
]

Ask: Which growth inhibition is listed for Cc1nc2ccc(NCCN(C)C)c3c(=O)c4ccccc4n1c23 ?
Reply: 75

Ask: Which growth inhibition is listed for CNC(=O)OCc1c(COC(=O)NC)c(C)n(-c2ccc(Cl)c(Cl)c2)c1C ?
Reply: -16

Ask: Which growth inhibition is listed for O=C(O)CN(CCNC(=O)OCC1c2ccccc2-c2ccccc21)CCNC(=O)OCC1c2ccccc2-c2ccccc21 ?
Reply: 11

Ask: Which growth inhibition is listed for OC(c1ccc(Br)cc1)(c1cccs1)C1CC1 (centres undefined) ?
Reply: 56

Ask: Which growth inhibition is listed for O=C(CCC(=O)c1ccc(O)cc1)Oc1ccc(O)cc1 ?
Reply: 2

Ask: Which growth inhibition is listed for Cc1c(N=Nc2ccc(Cl)cc2)c(C)n(C2OC(CO)C(O)C(O)C2O)c(=S)c1C#N (centres undefined) ?
Reply: -2

Ask: Which growth inhibition is listed for Clc1ccc(C(c2ccc(Cl)cc2)N2CCNCC2)cc1 ?
Reply: 6

Ask: Which growth inhibition is listed for [O-]c1c2cc(-[n+]3c(-c4ccccc4)cc(-c4ccccc4)cc3-c3ccccc3)cc1COCCOCCOCCOCCOC2 ?
Reply: 0

Ask: Which growth inhibition is listed for CCCCCCCCCCCCOC1C(COCCN2CCCC2)OC2OC(C)(C)OC21 (centres undefined) ?
Reply: 98
